Tested on: MCF7
Experiment: percentage of EdU-negative (G0-arrested) nuclei per well, 72 h; higher = more G0 arrest;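 also: secreted proteins added to cultured cells, EdU pulse at the end, nuclei found by Hoechst imaging, EdU status from nuclear versus surrounding ring intensity ratio, PBS as neutral control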
Details: protein concentration 0.225 µM; reference: sequence is the full UniProt precursor, the tested protein was the secreted form or ectodomain
TEST READOUT: percentage of EdU-negative (%)
Value expressed in %; do not type the unit.

| SEQ TEXT | TEST READOUT | VALUE |
| --- | --- | --- |
| MKFTTLLFLAAVAGALVYAEDASSDSTGADPAQEAGTSKPNEEISGPAEPASPPETTTTAQETSAAAVQGTAKVTSSRQELNPLKSIVEKSILLTEQALAKAGKGMHGGVPGGKQFIENGSEFAQKLLKKFSLLKPWA [Q9GZZ8] | percentage of EdU-negative | 24.5 |

// returns reported percentage of EdU-negative for input MMLHSALGLCLLLVTVSSNLAIAIKKEKRPPQTLSRGWGDDITWVQTYEEGLFYAQKSKKPLMVIHHLEDCQYSQALKKVFAQNEEIQEMAQNKFIMLNLMHETTDKNLSPDGQYVPRIMFVDPSLTVRADIAGRYSNRLYTYEPRDLPLLIENMKKALRLIQSEL [Q8TD06]
24.6

Query: percentage of EdU-negative; subject: MGCLLFLLLWALLQAWGSAEVPQRLFPLRCLQISSFANSSWTRTDGLAWLGELQTHSWSNDSDTVRSLKPWSQGTFSDQQWETLQHIFRVYRSSFTRDVKEFAKMLRLSYPLELQVSAGCEVHPGNASNNFFHVAFQGKDILSFQGTSWEPTQEAPLWVNLAIQVLNQDKWTRETVQWLLNGTCPQFVSGLLESGKSELKKQVKPKAWLSRGPSPGPGRLLLVCHVSGFYPKPVWVKWMRGEQEQQGTQPGDILPNADETWYLRATLDVVAGEAAGLSCRVKHSSLEGQDIVLYWGGSYTSMGLIALAVLACLLFLLIVGFTSRFKRQTSYQGVL
27.6

Data request, read-out percentage of EdU-negative, for MGCRAASGLLPGVAVVLLLLLQSTQSVYIQYQGFRVQLESMKKLSDLEAQWAPSPRLQAQSLLPAVCHHPALPQDLQPVCASQEASSIFKTLRTIANDDCELCVNVACTGCL
27.8

====

Tested on: MCF7
Experiment: percentage of EdU-negative (G0-arrested) nuclei per well, 72 h; higher = more G0 arrest
Details: protein concentration 0.0225 µM; reference: sequence is the full UniProt precursor, the tested protein was the secreted form or ectodomain
TEST READOUT: percentage of EdU-negative

Worked set:
| SEQ TEXT | VALUE |
| --- | --- |
| MDPKGLLSLTFVLFLSLAFGASYGTGGRMMNCPKILRQLGSKVLLPLTYERINKSMNKSIHIVVTMAKSLENSVENKIVSLDPSEAGPPRYLGDRYKFYLENLTLGIRESRKEDEGWYLMTLEKNVSVQRFCLQLRLYEQVSTPEIKVLNKTQENGTCTLILGCTVEKGDHVAYSWSEKAGTHPLNPANSSHLLSLTLGPQHADNIYICTVSNPISNNSQTFSPWPGCRTDPSETKPWAVYAGLLGGVIMILIMVVILQLRRRGKTNHYQTTVEKKSLTIYAQVQKPGPLQKKLDSFPAQDPCTTIYVAATEPVPESVQETNSITVYASVTLPES | 24.3% |
| MGSGRRALSAVPAVLLVLTLPGLPVWAQNDTEPIVLEGKCLVVCDSNPATDSKGSSSSPLGISVRAANSKVAFSAVRSTNHEPSEMSNKTRIIYFDQILVNVGNFFTLESVFVAPRKGIYSFSFHVIKVYQSQTIQVNLMLNGKPVISAFAGDKDVTREAATNGVLLYLDKEDKVYLKLEKGNLVGGWQYSTFSGFLVFPL [Q9NTU7] | 23.4% |
| MAAFPHKIIFFLVCSTLTHVAFSGIFNKRDFTRWPKPRCKMYIPLDPDYNADCPNVTAPVCASNGHTFQNECFFCVEQREFHYRIKFEKYGKCD [Q1W4C9] | 26.8% |

Read the next record carefully.
Quick one: percentage of EdU-negative for MKLNLVQIFFMLLMLLLGLGMGLGLGLHMATAVLEESDQPLNEFWSSDSQDKAEATEEGDGTQTTETLVLSNKEVVQPGWPEDPILGEDEVGGNKMLRASALFQSNKDYLRLDQTDRECNDMMAHKMKEPSQSCIAQYAFIHEDLNTVKAVCNSPVIACELKGGKCHKSSRPFDLTLCELSQPDQVTPNCNYLTSVIKKHIIITCNDMKRQLPTGQ [Q5GAN6] ?
27.3%

====

Tested on: hTERT-HMEC
Test: percentage of EdU-negative (G0-arrested) nuclei per well, 72 h; higher = more G0 arrest
Details: protein concentration 0.03125 µM; reference: sequence is the full UniProt precursor, the tested protein was the secreted form or ectodomain
TEST READOUT: percentage of EdU-negative

// known answers, use as guide
| SEQ TEXT | VALUE |
| --- | --- |
| MALGVPISVYLLFNAMTALTEEAAVTVTPPITAQQGNWTVNKTEADNIEGPIALKFSHLCLEDHNSYCINGACAFHHELEKAICRCFTGYTGERCEHLTLTSYAVDSYEKYIAIGIGVGLLLSGFLVIFYCYIRKRCLKLKSPYNVCSGERRPL | 5.25% |
| MAPGSRTSLLLAFALLCLPWLQEAGAVQTVPLSRLFDHAMLQAHRAHQLAIDTYQEFEETYIPKDQKYSFLHDSQTSFCFSDSIPTPSNMEETQQKSNLELLRISLLLIESWLEPVRFLRSMFANNLVYDTSDSDDYHLLKDLEEGIQTLMGRLEDGSRRTGQILKQTYSKFDTNSHNHDALLKNYGLLYCFRKDMDKVETFLRMVQCRSVEGSCGF [P0DML2] | 5.53% |
| MKTLFLGVTLGLAAALSFTLEEEDITGTWYVKAMVVDKDFPEDRRPRKVSPVKVTALGGGNLEATFTFMREDRCIQKKILMRKTEEPGKFSAYGGRKLIYLQELPGTDDYVFYCKDQRRGGLRYMGKLVGRNPNTNLEALEEFKKLVQHKGLSEEDIFMPLQTGSCVLEH [Q9NY56] | 5% |
| MRPTLLWSLLLLLGVFAAAAAAPPDPLSQLPAPQHPKIRLYNAEQVLSWEPVALSNSTRPVVYQVQFKYTDSKWFTADIMSIGVNCTQITATECDFTAASPSAGFPMDFNVTLRLRAELGALHSAWVTMPWFQHYRNVTVGPPENIEVTPGEGSLIIRFSSPFDIADTSTAFFCYYVHYWEKGGIQQVKGPFRSNSISLDNLKPSRVYCLQVQAQLLWNKSNIFRVGHLSNISCYETMADASTELQQVILISVGTFSLLSVLAGACFFLVLKYRGLIKYWFHTPPSIPLQIEEYLKDPTQPILEALDKDSSPKDDVWDSVSIISFPEKEQEDVLQTL | 5.59% |
| MEMFQGLLLLLLLSMGGTWASREMLRPRCRPINATLAVEKEGCPVCITVNTTICAGYCPTMTRVLQGVLPALPQVVCNYRDVRFESIRLPGCPRGVNPVVSYAVALSCQCALCRRSTTDCGGPKDHPLTCDDPRFQASSSSKAPPPSLPSPSRLPGPSDTPILPQ | 5.61% |
| MVGPAPRRRLRPLAALALVLALAPGLPTARAGQTPRPAERGPPVRLFTEEELARYGGEEEDQPIYLAVKGVVFDVTSGKEFYGRGAPYNALTGKDSTRGVAKMSLDPADLTHDTTGLTAKELEALDEVFTKVYKAKYPIVGYTARRILNEDGSPNLDFKPEDQPHFDIKDEF [Q9UMX5] | 4.98% |
| MGPLSAPPCTQHITWKGLLLTASLLNFWNLPITAQVTIEALPPKVSEGKDVLLLVHNLPQNLAGYIWYKGQLMDLYHYITSYVVDGQINIYGPAYTGRETVYSNASLLIQNVTREDAGSYTLHIIKRGDRTRGVTGYFTFNLYLKLPKPYITINNSKPRENKDVLAFTCEPKSENYTYIWWLNGQSLPVSPRVKRPIENRILILPSVTRNETGPYECEIRDRDGGMRSDPVTLNVLYGPDLPSIYPSFTYYRSGENLYLSCFAESNPPAEYFWTINGKFQQSGQKLSIPQITTKHRGLYTCSVRNSATGKESSKSMTVEVSAPSGIGRLPLLNPI | 4.75% |
| MKLWDVVAVCLVLLHTASAFPLPAGKRPPEAPAEDRSLGRRRAPFALSSDSNMPEDYPDQFDDVMDFIQATIKRLKRSPDKQMAVLPRRERNRQAAAANPENSRGKGRRGQRGKNRGCVLTAIHLNVTDLGLGYETKEELIFRYCSGSCDAAETTYDKILKNLSRNRRLVSDKVGQACCRPIAFDDDLSFLDDNLVYHILRKHSAKRCGCI | 5.08% |
| MGPLSAPPCTEHIKWKGLLLTALLLNFWNLPTTAQVMIEAQPPKVSEGKDVLLLVHNLPQNLTGYIWYKGQIRDLYHYITSYVVDGQIIIYGPAYSGRETVYSNASLLIQNVTREDAGSYTLHIIKRGDGTRGVTGYFTFTLYLETPKPSISSSNLNPREAMETVILTCNPETPDASYLWWMNGQSLPMTHRMQLSETNRTLFLFGVTKYTAGPYECEIWNSGSASRSDPVTLNLLHGPDLPRIFPSVTSYYSGENLDLSCFANSNPPAQYSWTINGKFQLSGQKLFIPQITPKHNGLYACSARNSATGEESSTSLTIRVIAPPGLGTFAFNNPT [Q9UQ72] | 4.83% |
| MSLSFLLLLFFSHLILSAWAHGEKRLAPKGQPGPAATDRNPRGSSSRQSSSSAMSSSSASSSPAASLGSQGSGLEQSSFQWSPSGRRTGSLYCRVGIGFHLQIYPDGKVNGSHEANMLSVLEIFAVSQGIVGIRGVFSNKFLAMSKKGKLHASAKFTDDCKFRERFQENSYNTYASAIHRTEKTGREWYVALNKRGKAKRGCSPRVKPQHISTHFLPRFKQSEQPELSFTVTVPEKKKPPSPIKPKIPLSAPRKNTNSVKYRLKFRFG | 4.71% |

I would be grateful if you could share the reported percentage of EdU-negative for MGSSSFLVLMVSLVLVTLVAVEGVKEGIEKAGVCPADNVRCFKSDPPQCHTDQDCLGERKCCYLHCGFKCVIPVKELEEGGNKDEDVSRPYPEPGWEAKCPGSSSTRCPQK [Q8WWY7] .
5.3%

Look up percentage of EdU-negative for this sequence: MVLLWLTLLLIALPCLLQTKEDPNPPITNLRMKAKAQQLTWDLNRNVTDIECVKDADYSMPAVNNSYCQFGAISLCEVTNYTVRVANPPFSTWILFPENSGKPWAGAENLTCWIHDVDFLSCSWAVGPGAPADVQYDLYLNVANRRQQYECLHYKTDAQGTRIGCRFDDISRLSSGSQSSHILVRGRSAAFGIPCTDKFVVFSQIEILTPPNMTAKCNKTHSFMHWKMRSHFNRKFRYELQIQKRMQPVITEQVRDRTSFQLLNPGTYTVQIRARERVYEFLSAWSTPQRFECDQEEGANTRAWRTSLLIALGTLLALVCVFVICRRYLVMQRLFPRIPHMKDPIGDSFQNDKLVVWEAGKAGLEECLVTEVQVVQKT
4.4%

Every entry's value here was drawn from the supplement of paper PMC11316812.
